Biological target: BTK T474S (Homo sapiens (Human), UniProt Q06187, T474S)
Sequence (Q06187 whole entry T474S): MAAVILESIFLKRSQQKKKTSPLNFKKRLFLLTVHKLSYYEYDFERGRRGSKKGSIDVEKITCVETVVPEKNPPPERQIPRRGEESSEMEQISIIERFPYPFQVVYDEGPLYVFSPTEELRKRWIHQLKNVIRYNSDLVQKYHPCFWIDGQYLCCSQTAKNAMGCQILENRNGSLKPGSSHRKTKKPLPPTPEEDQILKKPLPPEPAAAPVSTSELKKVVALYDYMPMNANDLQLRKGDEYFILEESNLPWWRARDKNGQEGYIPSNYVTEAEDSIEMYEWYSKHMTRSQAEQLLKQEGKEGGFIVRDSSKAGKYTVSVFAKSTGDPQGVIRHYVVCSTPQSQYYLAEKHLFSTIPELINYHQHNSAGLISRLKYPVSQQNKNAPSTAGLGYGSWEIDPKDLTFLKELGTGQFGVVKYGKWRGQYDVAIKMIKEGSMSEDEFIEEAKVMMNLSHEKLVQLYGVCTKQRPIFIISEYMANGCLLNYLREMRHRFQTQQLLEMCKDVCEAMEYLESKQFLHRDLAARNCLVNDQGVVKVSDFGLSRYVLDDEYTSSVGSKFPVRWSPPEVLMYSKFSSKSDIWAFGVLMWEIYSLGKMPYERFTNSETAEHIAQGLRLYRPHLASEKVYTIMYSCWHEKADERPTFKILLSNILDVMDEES
Assay: Binding kinetics measurements (Surface Plasmon Resonance) on BTK T474S
Details: binding affinity by Surface Plasmon Resonance (SPR)
RECORDED_ENDPOINT: Kd

{"COMPOUND": "Nc1ncc2c3c1c(-c1ccc(C(=O)Nc4cc(C(F)(F)F)ccn4)cc1F)nn3[C@@H]1CCC[C@H](C1)NC(=O)CNC/C=C/2 [Example 8]", "TGT": "BTK T474S (Homo sapiens (Human), UniProt Q06187, T474S)", "RECORDED_ENDPOINT": "Kd", "DATA_VALUE": "< 3 nM"}
{"COMPOUND": "Nc1ncc2c3c1c(-c1ccc(C(=O)Nc4cc(C(F)(F)F)ccn4)cc1)nn3[C@@H]1CCC[C@H](C1)NC(=O)COCCC/C=C/2 [Example 18]", "TGT": "BTK T474S (Homo sapiens (Human), UniProt Q06187, T474S)", "RECORDED_ENDPOINT": "Kd", "DATA_VALUE": "< 3 nM"}
{"COMPOUND": "Nc1ncc2c3c1c(-c1ccc(C(=O)Nc4cc(C(F)(F)F)ccn4)cc1)nn3[C@@H]1CCC[C@H](C1)C(=O)NCCCCCCC2 [Example 115]", "TGT": "BTK T474S (Homo sapiens (Human), UniProt Q06187, T474S)", "RECORDED_ENDPOINT": "Kd", "DATA_VALUE": "< 3 nM"}

// map C[C@H]1CC(=O)N[C@@H]2CCC[C@H](C2)n2nc(-c3ccc(C(=O)Nc4cc(C(F)(F)F)ccn4)cc3)c3c(N)ncc(c32)/C=C/CN1C [Example 151] to recorded Kd (system: BTK T474S (Homo sapiens (Human), UniProt Q06187, T474S))
< 3 nM

Then this compound: C[C@@H]1C[C@@H](C)n2nc(-c3ccc(C(=O)Nc4cc(C(F)(F)F)ccn4)cc3)c3c(N)ncc(c32)/C=C/CCCCCC(=O)N1 [Example 172]
< 3 nM

Then this compound: Nc1ncc2c3c1c(-c1ccc(C(=O)Nc4cc(C(F)(F)F)ccn4)cc1)nn3[C@@H]1CCC[C@H](C1)NC(=O)CCCOC/C=C/2 [Example 27]
< 3 nM

###

Each entry below lists one item and its recorded pIC50 value.
Target: full-length BTK C481S enzyme (Homo sapiens (Human), UniProt Q06187, C481S)
Sequence (Q06187 whole entry C481S): as the sequence (Q06187 whole entry T474S) above, with S474T, C481S counted along it
Assay: Biochemical kinase assay BTK C481S (IMAP)
pIC50: −log10 of the molar value.

Take a look at these entries with their results.
{"MOLECULE": "C[C@@H]1CC(=O)N[C@@H]2CCC[C@H](C2)n2nc(-c3ccc(C(=O)Nc4cc(C(F)(F)F)ccn4)cc3)c3c(N)ncc(c32)/C=C/CN1", "RECORDED_ENDPOINT": "pIC50", "DATA_VALUE": "> 8.30"}
{"MOLECULE": "Nc1ncc2c3c1c(-c1ccc(C(=O)Nc4cc(C(F)(F)F)ccn4)cc1)nn3[C@@H]1CCC[C@H](C1)NC(=O)CCCC/C=C/C2 [Example 98a]", "RECORDED_ENDPOINT": "pIC50", "DATA_VALUE": "6.30 to 7.30"}
{"MOLECULE": "Nc1ncc2c3c1c(-c1ccc(C(=O)Nc4cc(C(F)(F)F)ccn4)cc1)nn3[C@@H]1CCC[C@H](C1)NC(=O)CCCC(F)(F)/C=C/2", "RECORDED_ENDPOINT": "pIC50", "DATA_VALUE": "7.30 to 8.30"}
{"MOLECULE": "C[C@@H]1CCn2nc(-c3ccc(C(=O)Nc4cc(C(F)(F)F)ccn4)cc3)c3c(N)ncc(c32)/C=C/CN2CC[C@H]2C(=O)N1", "RECORDED_ENDPOINT": "pIC50", "DATA_VALUE": "> 8.30"}
{"MOLECULE": "C[C@@H]1CC(=O)N[C@@H]2CC[C@H](C2)c2nc(-c3ccc(C(=O)Nc4cc(C#N)ccn4)cc3)c3c(N)ncc(n23)/C=C/CCN1 [Example 208]", "RECORDED_ENDPOINT": "pIC50", "DATA_VALUE": "> 8.30"}

// map C[C@@H]1CCn2nc(-c3ccc(C(=O)Nc4cc(C(F)(F)F)ccn4)cc3)c3c(N)ncc(c32)/C=C/CCO[C@@H](C)CC(=O)N1 to recorded pIC50 (system: full-length BTK C481S enzyme (Homo sapiens (Human), UniProt Q06187, C481S))
> 8.30

###

Target: full-length BTK C481S enzyme (Homo sapiens (Human), UniProt Q06187, C481S)
Assay: Biochemical kinase assay BTK C481S (IMAP)
RECORDED_ENDPOINT: IC50

Take a look at these entries with their results.
{"MOLECULE": "Nc1ncc2c3c1c(-c1ccc(C(=O)Nc4cc(C(F)(F)F)ccn4)cc1)nn3[C@@H]1CCC[C@H](C1)C(=O)NCCC/C=C/C2 [Example 84a]", "IC50": "5 to 50 nM"}
{"MOLECULE": "Nc1ncc2n3c(nc(-c4ccc(C(=O)Nc5cc(C6CC6)ccn5)cc4)c13)[C@@H]1CC[C@H](C1)NC(=O)CCOCC/C=C/2", "IC50": "< 5 nM"}

Here is another molecule to look at.
I'd like to know its IC50. The molecule in question is C[C@H]1CC(=O)N[C@@H]2CCC[C@H](C2)n2nc(-c3ccc(C(=O)Nc4cc(C#N)ccn4)cc3)c3c(N)ncc(c32)/C=C/CCO1
< 5 nM

###

Each entry below lists one item and its recorded IC50 value.
Target: full-length BTK C481S enzyme (Homo sapiens (Human), UniProt Q06187, C481S)
Experiment: Biochemical kinase assay BTK C481S (IMAP)

Take a look at these entries with their results.
{"COMPOUND_STRUCTURE": "COc1cc(-c2nn3c4c(cnc(N)c24)/C=C/CCCCCC(=O)N[C@@H]2CCC[C@@H]3C2)ccc1C(=O)Nc1cc(C(F)(F)F)ccn1", "TGT": "full-length BTK C481S enzyme (Homo sapiens (Human), UniProt Q06187, C481S)", "DATA_VALUE": "< 5 nM"}
{"COMPOUND_STRUCTURE": "Nc1ncc2c3c1c(-c1ccc(C(=O)Nc4cc(C(F)(F)F)ccn4)cc1)nn3[C@@H]1CCC[C@H](C1)C(=O)NCCCCC2", "TGT": "full-length BTK C481S enzyme (Homo sapiens (Human), UniProt Q06187, C481S)", "DATA_VALUE": "50 to 500 nM"}

Here is another compound to look at.
I'd like to know its IC50. The compound in question is Nc1ncc2c3c1c(-c1ccc(C(=O)Nc4ccccn4)cc1)nn3[C@@H]1CCC[C@H](C1)NC(=O)CCCCCC/C=C/2
< 5 nM

###

Each entry below lists one item and its recorded IC50 value.
Test system: wt-TMD8 diffuse large B-cell lymphoma cells
Test: Cell proliferation assay wt-TMD8 (ATPlite, 120 hours)
Assay type: cell-based
Conditions: wt-TMD8 cells, 120 hours, ATPlite; read-out: IC50 wt-TMD8

{"MOLECULE": "C[C@@H]1CC(=O)N[C@@H]2CC[C@H](C2)c2nc(-c3ccc(C(=O)Nc4cc(C#N)ccn4)cc3)c3c(N)ncc(n23)/C=C/CCN1 [Example 218]", "DATA_VALUE": "< 100 nM"}

I'd like to know its IC50. The molecule in question is CC1NC/C=C/c2cnc(N)c3c(-c4ccc(C(=O)Nc5cc(C(F)(F)F)ccn5)cc4)nn(c23)CC[C@@H](C)NC1=O (single isomer, unassigned) [Example 144]
< 100 nM

###

Target: BTK T316A (Homo sapiens (Human), UniProt Q06187, T316A)
Sequence (Q06187 whole entry T316A): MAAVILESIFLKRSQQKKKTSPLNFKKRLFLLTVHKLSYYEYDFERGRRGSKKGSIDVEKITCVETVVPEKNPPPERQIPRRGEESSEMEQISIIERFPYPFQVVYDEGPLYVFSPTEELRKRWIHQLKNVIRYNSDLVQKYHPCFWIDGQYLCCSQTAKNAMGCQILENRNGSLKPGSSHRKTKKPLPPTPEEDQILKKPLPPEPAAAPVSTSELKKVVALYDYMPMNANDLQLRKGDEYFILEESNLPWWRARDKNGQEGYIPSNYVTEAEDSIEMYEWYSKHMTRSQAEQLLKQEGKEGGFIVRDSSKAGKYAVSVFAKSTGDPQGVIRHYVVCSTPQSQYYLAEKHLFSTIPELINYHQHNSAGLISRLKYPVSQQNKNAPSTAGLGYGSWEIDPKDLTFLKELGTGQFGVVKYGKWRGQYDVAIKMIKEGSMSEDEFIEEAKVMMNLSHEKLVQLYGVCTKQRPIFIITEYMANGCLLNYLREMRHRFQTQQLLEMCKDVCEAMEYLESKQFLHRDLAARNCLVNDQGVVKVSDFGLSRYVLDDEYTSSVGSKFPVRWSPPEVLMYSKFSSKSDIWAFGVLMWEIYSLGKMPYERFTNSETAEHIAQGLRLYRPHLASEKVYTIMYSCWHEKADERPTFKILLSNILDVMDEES
Test: Binding kinetics measurements (Surface Plasmon Resonance) on BTK T316A
Settings: target residence time, SPR
RECORDED_ENDPOINT: Tau (h) BTK T316A (Act)

{"COMPOUND": "Nc1ncc2c3c1c(-c1ccc(C(=O)Nc4cc(C(F)(F)F)ccn4)cc1)nn3[C@@H]1CCC[C@H](C1)NC(=O)CCOC/C=C/2 [Example 25]", "TGT": "BTK T316A (Homo sapiens (Human), UniProt Q06187, T316A)", "Tau (h) BTK T316A (Act)": 3.55}

I: Nc1ncc2c3c1c(-c1ccc(C(=O)Nc4cc(C(F)(F)F)ccn4)cc1)nn3[C@@H]1CCC[C@H](C1)NC(=O)CCC/C=C/2 [Example 47]
II: Nc1ncc2c3c1c(-c1ccc(C(=O)Nc4cc(C(F)(F)F)ccn4)cc1)nn3[C@@H]1CCC[C@H](C1)NC(=O)CCCC/C=C/2 [Example 48]
Pick one: I or II . Which one has the lower reported Tau (h) BTK T316A (Act)? Identify your selection by its label.
I
(I: 1.91 h, II: 3.89 h)

# credit: patent US20250074911A1
